The measured values listed here are drawn from the RNAGym collection of RNA variant scans (doi:10.7554/elife.80360).

Recorded measurements of self-cleavage, one per entry
B1: CPEB3 Ribozyme (parent)
chain: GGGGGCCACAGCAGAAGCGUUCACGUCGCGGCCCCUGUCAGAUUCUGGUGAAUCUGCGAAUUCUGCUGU

Variants of: B1
Experiment: self-cleavage, relative activity (ratio to wild type); higher = more cleavage; co-transcriptional
Answer as a number with no unit attached.

Reference set (3 entries):
GGGGGCCACAGCAGAAGCGAUCACGUCGGGGCCCCUGUCAGAUUCUGGUGAAUCUGCGAAUUCUGCUGU [U20A C29G] = 0.157
GGGGGGCACACCAGAAGCGUUCACGUCGCGGCCCCUGUCAGAUUCUGGUGAAUCUGCGAAUUCUGCUGU [C6G G11C] = 0.17
GGGGGCGACAGCAGAAGCGUUCACGUCGCGGCCCCUGUCAGAUUCUGGUGGAUCUGCGAAUUCUGCUGU [C7G A51G] = 0.455

Q: Specify self-cleavage for GGGGGCCACAGCAGAAGCGGUCACGUCGCGGCCCCUGUCAGAUUAUGGUGAAUCUGCGAAUUCUGCUGU [U20G C45A] and stop.
A: 0.221

Q: Consider the variant GGGGGCCACAGCAGAAGCGUUCACGUCGCGGCCCCUCUCAGAUUCUGGUGAAUCUGGGAAUUCUGCUGU [G37C C57G] and give its recorded self-cleavage.
A: 0.189

Q: Retrieve self-cleavage measured for GGGGGCCACAGCAGAAGGGUUCACGUCGCGGCCCCUGUCAGAUUCUGGUGAAUCUGUGAAUUCUGCUGU [C18G C57U] and print it.
A: 0.145

Q: Assign self-cleavage to the following record: GGGGGCCACAGCAGAAGCGUUCACGUCGUGGCCCCUGUCAGAUUCUGGUGAAUCUGCGAAUUCUGCUGA [C29U U69A]
A: 0.619

Q: Please list self-cleavage recorded for the variant GGGGGCCACAGCAAAAGCGUUCACGUCGCGGCCCCUGUCAGAUUCUGGUGAAUCUGCGGAUUCUGCUGU [G14A A59G]
A: 0.704

Q: Look up and state reported self-cleavage for GGGUGCCACAGCAGAAGCGUUCACGUCGCGGCCCCUGUCAGAUUCUGGUGAAUCUGCCAAUUCUGCUGU [G4U G58C]
A: 0.457
